Where these numbers come from: patent US9364479B2

Experiment: in vivo
Conditions: male, monkey, po, 20 mg/kg
Measured Quantity: AUC(0-t) (ng·h/mL)
Numbers only; they are read as ng·h/mL.

Inquiry: Suppose we examine the compound COc1cc2c(Nc3ccc(Cl)c(Cl)c3F)ncnc2cc1OC[C@@H]1C[C@@H]2CN(C)C[C@@H]2C1 [XL-647] ; what AUC(0-t) value has been reported?
Reply text: 3900

====

Target: EGFR L858R (pCMV/Lx-1) (Homo sapiens, UniProt P00533, L858R)
Experiment: EGFR phosphorylation ELISA in transfected Lx-1 cells
Measured Quantity: pIC50
Note on units: pIC50 is unitless, being -log10 of a concentration expressed in mol/L.

Inquiry: Missing value: pIC50, EGFR L858R (pCMV/Lx-1) (Homo sapiens, UniProt P00533, L858R), entry `COc1cc2c(Nc3ccc(Cl)c(Cl)c3F)ncnc2cc1OC[C@@H]1C[C@@H]2CN(C)C[C@@H]2C1` . Fill in?
Reply text: 8.30

====

Molecular target: CDK7 (Homo sapiens)
Sequence (P50613 whole entry, species assumed): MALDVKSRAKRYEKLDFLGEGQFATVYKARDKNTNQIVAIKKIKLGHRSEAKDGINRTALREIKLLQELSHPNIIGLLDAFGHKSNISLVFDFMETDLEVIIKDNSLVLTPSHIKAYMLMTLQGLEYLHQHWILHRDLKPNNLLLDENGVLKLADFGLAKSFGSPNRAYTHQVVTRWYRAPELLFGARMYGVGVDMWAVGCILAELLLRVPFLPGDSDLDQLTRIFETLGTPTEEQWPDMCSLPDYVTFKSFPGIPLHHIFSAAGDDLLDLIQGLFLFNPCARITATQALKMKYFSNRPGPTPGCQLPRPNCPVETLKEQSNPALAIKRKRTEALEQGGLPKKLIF
Sequence (P51946 whole entry partner, species assumed): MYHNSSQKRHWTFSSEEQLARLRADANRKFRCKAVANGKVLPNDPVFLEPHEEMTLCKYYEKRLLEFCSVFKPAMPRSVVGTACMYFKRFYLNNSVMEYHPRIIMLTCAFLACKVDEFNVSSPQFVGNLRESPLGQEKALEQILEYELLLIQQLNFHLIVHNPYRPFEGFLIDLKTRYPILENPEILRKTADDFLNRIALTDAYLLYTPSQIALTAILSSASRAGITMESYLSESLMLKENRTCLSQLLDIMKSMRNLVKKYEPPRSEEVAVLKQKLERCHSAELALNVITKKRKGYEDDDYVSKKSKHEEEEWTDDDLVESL
Sequence (P51948 whole entry partner, species assumed): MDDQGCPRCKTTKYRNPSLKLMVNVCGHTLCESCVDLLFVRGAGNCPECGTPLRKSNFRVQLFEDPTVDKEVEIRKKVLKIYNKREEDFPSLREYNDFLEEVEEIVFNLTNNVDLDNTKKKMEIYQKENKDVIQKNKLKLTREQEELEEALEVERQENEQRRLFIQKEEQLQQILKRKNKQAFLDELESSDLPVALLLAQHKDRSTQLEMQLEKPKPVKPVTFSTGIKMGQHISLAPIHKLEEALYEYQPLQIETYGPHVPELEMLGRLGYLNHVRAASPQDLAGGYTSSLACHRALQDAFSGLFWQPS
pIC50: −log10 of the molar value.
Measured Quantity: pIC50

Inquiry: Which pIC50 value belongs to COc1cc2c(Nc3ccc(Cl)c(Cl)c3F)ncnc2cc1OC[C@@H]1C[C@@H]2CN(C)C[C@@H]2C1 [XL-647] ?
Reply text: < 6.00

====

Target: IKKα (Homo sapiens)
Sequence (O15111 1-745): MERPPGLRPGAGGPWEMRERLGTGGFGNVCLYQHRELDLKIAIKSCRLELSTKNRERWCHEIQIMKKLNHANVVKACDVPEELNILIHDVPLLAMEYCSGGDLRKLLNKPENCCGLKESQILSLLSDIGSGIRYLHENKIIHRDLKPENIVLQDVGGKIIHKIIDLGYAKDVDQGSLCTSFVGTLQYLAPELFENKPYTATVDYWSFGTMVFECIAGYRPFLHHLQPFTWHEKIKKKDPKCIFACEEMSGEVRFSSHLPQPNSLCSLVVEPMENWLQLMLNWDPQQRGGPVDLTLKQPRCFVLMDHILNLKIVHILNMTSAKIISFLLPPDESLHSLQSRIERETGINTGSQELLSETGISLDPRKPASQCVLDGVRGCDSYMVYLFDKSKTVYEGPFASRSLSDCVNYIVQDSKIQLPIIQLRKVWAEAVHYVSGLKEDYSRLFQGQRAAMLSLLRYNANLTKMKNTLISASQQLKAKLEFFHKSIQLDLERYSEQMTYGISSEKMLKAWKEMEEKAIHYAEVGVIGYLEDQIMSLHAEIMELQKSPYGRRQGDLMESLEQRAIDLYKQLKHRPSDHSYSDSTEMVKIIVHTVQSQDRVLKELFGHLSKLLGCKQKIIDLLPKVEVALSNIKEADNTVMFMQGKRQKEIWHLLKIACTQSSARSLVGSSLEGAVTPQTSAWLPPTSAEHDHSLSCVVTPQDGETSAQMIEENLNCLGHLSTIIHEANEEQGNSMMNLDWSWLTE
Measured Quantity: IC50

Inquiry: Which IC50 is listed for `COc1cc2c(Nc3ccc(Cl)c(Cl)c3F)ncnc2cc1OC[C@@H]1C[C@@H]2CN(C)C[C@@H]2C1` ?
Reply text: > 1000 nM

====

Molecular target: PRAK (Homo sapiens, UniProt Q8IW41)
Sequence (Q8IW41 whole entry, species assumed): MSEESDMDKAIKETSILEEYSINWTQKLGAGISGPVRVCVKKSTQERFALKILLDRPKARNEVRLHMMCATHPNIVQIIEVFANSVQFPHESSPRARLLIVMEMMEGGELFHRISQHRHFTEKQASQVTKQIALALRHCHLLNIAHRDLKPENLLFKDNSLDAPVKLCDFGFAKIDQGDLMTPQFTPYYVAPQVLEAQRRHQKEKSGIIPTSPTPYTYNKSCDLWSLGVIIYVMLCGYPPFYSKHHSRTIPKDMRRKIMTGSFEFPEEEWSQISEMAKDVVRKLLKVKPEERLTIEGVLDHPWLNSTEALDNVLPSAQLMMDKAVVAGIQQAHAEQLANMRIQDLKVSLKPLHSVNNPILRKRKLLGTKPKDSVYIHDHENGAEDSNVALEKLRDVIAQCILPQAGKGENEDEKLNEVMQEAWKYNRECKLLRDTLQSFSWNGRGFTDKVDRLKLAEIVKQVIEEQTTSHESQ
Measured Quantity: IC50

Inquiry: Return reported IC50; argument: `COc1cc2c(Nc3ccc(Cl)c(Cl)c3F)ncnc2cc1OC[C@@H]1C[C@@H]2CN(C)C[C@@H]2C1`
Reply text: > 1 µM

====

Test: in vivo
Details: rat, po, 30 mg/kg
Measured Quantity: AUC(0-t) (µg·h/mL)
Record the value in µg·h/mL, omitting the unit from your answer.

Inquiry: // query AUC(0-t) value for entry `COc1cc2c(Nc3ccc(Cl)c(Cl)c3F)ncnc2cc1OC[C@@H]1C[C@@H]2CN(C)C[C@@H]2C1`
Reply text: 5.74

====

Target: UniProt:P07332
Sequence (P07332 whole entry, species assumed): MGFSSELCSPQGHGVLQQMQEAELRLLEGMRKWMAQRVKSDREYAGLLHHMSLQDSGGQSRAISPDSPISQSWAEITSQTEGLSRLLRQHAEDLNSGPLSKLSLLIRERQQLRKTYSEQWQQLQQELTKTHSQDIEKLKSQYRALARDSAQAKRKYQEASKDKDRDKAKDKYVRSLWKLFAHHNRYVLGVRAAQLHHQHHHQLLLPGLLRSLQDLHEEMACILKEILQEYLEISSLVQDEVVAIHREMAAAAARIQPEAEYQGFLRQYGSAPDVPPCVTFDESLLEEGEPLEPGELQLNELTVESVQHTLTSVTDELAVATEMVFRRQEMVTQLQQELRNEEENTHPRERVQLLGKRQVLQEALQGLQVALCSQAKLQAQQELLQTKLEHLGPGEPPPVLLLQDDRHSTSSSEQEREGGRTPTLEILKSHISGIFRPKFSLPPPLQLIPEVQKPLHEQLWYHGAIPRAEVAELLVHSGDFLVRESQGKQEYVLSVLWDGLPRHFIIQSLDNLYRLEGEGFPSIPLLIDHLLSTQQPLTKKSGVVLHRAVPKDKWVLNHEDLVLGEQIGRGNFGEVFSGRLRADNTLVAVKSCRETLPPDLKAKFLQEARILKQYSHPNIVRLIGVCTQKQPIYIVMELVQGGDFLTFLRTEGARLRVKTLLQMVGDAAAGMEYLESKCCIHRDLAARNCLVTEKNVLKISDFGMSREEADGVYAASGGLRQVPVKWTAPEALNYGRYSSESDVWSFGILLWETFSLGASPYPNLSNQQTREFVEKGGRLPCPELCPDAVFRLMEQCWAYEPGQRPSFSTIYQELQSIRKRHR
Measured Quantity: pIC50
pIC50 here: minus log base 10 of the concentration, concentration in moles per litre.

Inquiry: Please report the recorded pIC50 for `COc1cc2c(Nc3ccc(Cl)c(Cl)c3F)ncnc2cc1OC[C@@H]1C[C@@H]2CN(C)C[C@@H]2C1` .
Reply text: 6.32

====

Molecular target: CDK5 (Homo sapiens, UniProt Q00535)
Sequence (Q00535 whole entry, species assumed): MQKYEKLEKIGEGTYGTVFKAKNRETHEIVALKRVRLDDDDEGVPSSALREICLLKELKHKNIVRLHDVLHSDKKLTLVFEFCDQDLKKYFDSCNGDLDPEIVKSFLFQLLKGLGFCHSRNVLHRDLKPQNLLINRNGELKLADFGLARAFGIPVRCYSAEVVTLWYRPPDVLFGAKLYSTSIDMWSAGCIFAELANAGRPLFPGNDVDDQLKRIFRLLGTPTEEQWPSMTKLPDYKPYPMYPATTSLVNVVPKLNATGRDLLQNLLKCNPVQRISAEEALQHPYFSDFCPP
Sequence (Q15078 whole entry partner, species assumed): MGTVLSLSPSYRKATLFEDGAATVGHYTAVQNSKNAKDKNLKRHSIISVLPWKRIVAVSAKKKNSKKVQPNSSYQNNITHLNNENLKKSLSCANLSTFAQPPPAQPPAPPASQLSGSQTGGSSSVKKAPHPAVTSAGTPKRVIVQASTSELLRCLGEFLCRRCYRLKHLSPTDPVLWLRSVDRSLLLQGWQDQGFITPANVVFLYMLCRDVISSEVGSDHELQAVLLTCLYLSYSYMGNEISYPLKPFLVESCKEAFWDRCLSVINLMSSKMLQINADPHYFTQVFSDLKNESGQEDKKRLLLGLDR
pIC50: −log10 of the molar value.
Measured Quantity: pIC50

Inquiry: Reported pIC50 for CDK5 (Homo sapiens, UniProt Q00535), given COc1cc2c(Nc3ccc(Cl)c(Cl)c3F)ncnc2cc1OC[C@@H]1C[C@@H]2CN(C)C[C@@H]2C1 [XL-647] ?
Reply text: < 6.00

====

Molecular target: UniProt P00517
pIC50: −log10 of the molar value.
Measured Quantity: pIC50

Inquiry: Request the reported pIC50 associated with `COc1cc2c(Nc3ccc(Cl)c(Cl)c3F)ncnc2cc1OC[C@@H]1C[C@@H]2CN(C)C[C@@H]2C1`
Reply text: < 5.00

====

Molecular target: CDK3 (Homo sapiens)
pIC50: −log10 of the molar value.
Measured Quantity: pIC50

Inquiry: Reported pIC50, compound `COc1cc2c(Nc3ccc(Cl)c(Cl)c3F)ncnc2cc1OC[C@@H]1C[C@@H]2CN(C)C[C@@H]2C1` : ____
Reply text: < 6.00

====

Target: JNK2α (Homo sapiens, UniProt P45984)
Sequence (P45984 whole entry): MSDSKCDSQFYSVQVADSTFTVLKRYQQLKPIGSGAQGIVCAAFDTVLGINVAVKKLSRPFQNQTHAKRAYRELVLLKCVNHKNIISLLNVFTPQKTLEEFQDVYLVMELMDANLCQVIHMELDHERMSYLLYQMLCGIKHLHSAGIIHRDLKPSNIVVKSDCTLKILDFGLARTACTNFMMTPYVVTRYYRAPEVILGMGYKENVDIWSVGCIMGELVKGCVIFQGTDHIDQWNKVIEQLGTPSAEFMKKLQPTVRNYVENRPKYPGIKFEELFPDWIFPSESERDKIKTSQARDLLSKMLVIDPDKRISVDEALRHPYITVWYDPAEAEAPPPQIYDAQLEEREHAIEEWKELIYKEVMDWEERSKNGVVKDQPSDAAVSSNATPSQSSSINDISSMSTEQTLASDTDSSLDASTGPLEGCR
Measured Quantity: IC50

Inquiry: Look at this compound and give its reported IC50. `COc1cc2c(Nc3ccc(Cl)c(Cl)c3F)ncnc2cc1OC[C@@H]1C[C@@H]2CN(C)C[C@@H]2C1`
Reply text: > 1 µM

====

Assay: in vivo
Settings: male, monkey, po, 10 mg/kg
Protocol: The nonclinical Pharmacokinetics (PK) of XL-647 was studied in mice, rats, dogs, and monkeys. Animals were dosed either once or daily over several days, as described in Table 21 and 22 below. A summary of results can also be found in Tables 21 and 22 below. […] Mean tmax values were approximately 4 to 8 hours, and plasma terminal half-lives ranged from 9.41 to 20.9 hours.
Measured Quantity: AUC(0-t) (ng·h/mL)
Give just the number in ng·h/mL; leave the unit off.

Inquiry: What value of measured AUC(0-t) is listed for COc1cc2c(Nc3ccc(Cl)c(Cl)c3F)ncnc2cc1OC[C@@H]1C[C@@H]2CN(C)C[C@@H]2C1 [XL-647] ?
Reply text: 3630

====

Experiment: in vivo
Details: male, monkey, po, 6 mg/kg
Measured Quantity: AUC(0-t)

Inquiry: Query (compound): `COc1cc2c(Nc3ccc(Cl)c(Cl)c3F)ncnc2cc1OC[C@@H]1C[C@@H]2CN(C)C[C@@H]2C1` ; field requested: AUC(0-t)
Reply text: 1860 ng·h/mL

====

Biological target: EGFR WT (pTet-On/Lx-1) (Homo sapiens)
Test: EGFR phosphorylation ELISA in transfected Lx-1 cells
Measured Quantity: pIC50
Give only the number. pIC50 is defined as minus log10 of concentration in molar units.

Inquiry: Fill blank: measured pIC50 of the compound COc1cc2c(Nc3ccc(Cl)c(Cl)c3F)ncnc2cc1OC[C@@H]1C[C@@H]2CN(C)C[C@@H]2C1 [XL-647] is ____.
Reply text: 8.30

====

Biological target: CDK1 (Homo sapiens)
Sequence (P06493 whole entry, species assumed): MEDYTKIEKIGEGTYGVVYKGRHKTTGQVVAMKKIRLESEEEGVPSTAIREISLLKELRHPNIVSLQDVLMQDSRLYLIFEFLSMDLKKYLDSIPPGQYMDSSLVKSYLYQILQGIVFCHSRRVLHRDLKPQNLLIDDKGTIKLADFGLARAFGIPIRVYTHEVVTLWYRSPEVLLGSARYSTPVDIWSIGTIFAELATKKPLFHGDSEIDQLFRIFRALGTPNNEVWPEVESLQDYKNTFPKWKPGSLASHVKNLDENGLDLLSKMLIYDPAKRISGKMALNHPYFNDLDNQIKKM
Sequence (P14635 whole entry partner, species assumed): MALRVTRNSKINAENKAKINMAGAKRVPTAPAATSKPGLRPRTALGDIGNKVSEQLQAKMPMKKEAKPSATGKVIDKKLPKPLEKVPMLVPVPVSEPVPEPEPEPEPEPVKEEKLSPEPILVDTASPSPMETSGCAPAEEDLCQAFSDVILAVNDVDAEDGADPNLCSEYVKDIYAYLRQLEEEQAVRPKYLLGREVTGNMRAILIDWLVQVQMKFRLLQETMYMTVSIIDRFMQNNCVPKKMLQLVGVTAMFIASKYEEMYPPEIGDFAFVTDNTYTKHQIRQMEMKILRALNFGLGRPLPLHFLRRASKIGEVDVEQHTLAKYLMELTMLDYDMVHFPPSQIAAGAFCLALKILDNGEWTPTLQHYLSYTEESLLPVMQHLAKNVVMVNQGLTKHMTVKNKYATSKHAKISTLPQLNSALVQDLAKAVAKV
Measured Quantity: IC50

Inquiry: # input compound: `COc1cc2c(Nc3ccc(Cl)c(Cl)c3F)ncnc2cc1OC[C@@H]1C[C@@H]2CN(C)C[C@@H]2C1` ; wanted: its IC50
Reply text: > 1000 nM

====

Biological target: MEK1 (Homo sapiens)
Test: In vitro kinase inhibition screen
Type: biochemical
Measured Quantity: IC50

Inquiry: Item under review: COc1cc2c(Nc3ccc(Cl)c(Cl)c3F)ncnc2cc1OC[C@@H]1C[C@@H]2CN(C)C[C@@H]2C1 [XL-647] . Reported IC50?
Reply text: > 1 µM

====

Biological target: SAPK4 (Homo sapiens, UniProt O15264)
Sequence (O15264 whole entry, species assumed): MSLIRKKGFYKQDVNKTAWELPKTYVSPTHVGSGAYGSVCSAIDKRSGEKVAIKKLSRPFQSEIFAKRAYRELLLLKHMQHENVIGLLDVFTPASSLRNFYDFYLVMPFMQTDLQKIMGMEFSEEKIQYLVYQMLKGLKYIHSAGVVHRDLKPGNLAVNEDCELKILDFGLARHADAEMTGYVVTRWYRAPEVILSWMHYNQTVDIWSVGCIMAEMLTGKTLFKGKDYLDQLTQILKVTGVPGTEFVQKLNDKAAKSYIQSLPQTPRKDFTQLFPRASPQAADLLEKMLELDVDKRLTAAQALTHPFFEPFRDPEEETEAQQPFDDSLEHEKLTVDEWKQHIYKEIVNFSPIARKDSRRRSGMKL
Measured Quantity: IC50

Inquiry: What does the data say about its IC50? Entry: `COc1cc2c(Nc3ccc(Cl)c(Cl)c3F)ncnc2cc1OC[C@@H]1C[C@@H]2CN(C)C[C@@H]2C1`
Reply text: > 1000 nM

====

Experiment: in vivo
Conditions: rat, po, 3 mg/kg
Measured Quantity: half-life (h)
The figure you give is taken to be in h; do not add the unit.

Inquiry: // lookup half-life for COc1cc2c(Nc3ccc(Cl)c(Cl)c3F)ncnc2cc1OC[C@@H]1C[C@@H]2CN(C)C[C@@H]2C1 [XL-647]
Reply text: 20.4

====

Assay: In vitro kinase inhibition screen
Assay type: biochemical
Measured Quantity: IC50

Inquiry: # input compound: `COc1cc2c(Nc3ccc(Cl)c(Cl)c3F)ncnc2cc1OC[C@@H]1C[C@@H]2CN(C)C[C@@H]2C1` ; wanted: its IC50
Reply text: > 1000 nM

====

Biological target: PKC-γ (Homo sapiens, UniProt P05129)
Measured Quantity: IC50

Inquiry: For `COc1cc2c(Nc3ccc(Cl)c(Cl)c3F)ncnc2cc1OC[C@@H]1C[C@@H]2CN(C)C[C@@H]2C1` , what is its reported IC50?
Reply text: > 10 µM
